METHOD_NOTES: ATP-PPi exchange assay (amino acid activation)
Type: biochemical
ASSAY_CONTEXT: nsAA pAzF
READOUT_NAME: kcat

(Q) For the molecule shown here, pAcFRS.1.t1: pAcFRS variant A167D, R257G, SEQ ID NO: 5 (protein) MDEFEMIKRNTSEIISEEELREVLKKDEKSALIGFEPSGKIHLGHYLQIKKMIDLQNAGFDIIILLADLHAYLNQKGELDEIRKIGDYNKKVFEAMGLKAKYVYGSEFQLDKDYTLNVYRLALKTTLKRARRSMELIAREDENPKVAEVIYPIMQVNGCHYRGVDVDVGGMEQRKIHMLARELLPKKVVCIHNPVLTGLDGEGKMSSSKGNFIAVDDSPEEIRAKIKKAYCPAGVVEGNPIMEIAKYFLEYPLTIKGPEKFGGDLTVNSYEELESLFKNKELHPMRLKNAVAEELIKILEPIRKRL , give the reported kcat.
(A) 3.65 ± 0.62 ×10^−2 s^−1
